Molecular target: T1, His9-hMSR1 (human MSR1 extracellular domain) (Homo sapiens, UniProt P21757)
T1 construct: human MSR1 extracellular domain expressed with a N-terminal nonahistidine tag; purchased R&D Systems 2708-MS
T1 sequence (P21757 77-451 limits assumed): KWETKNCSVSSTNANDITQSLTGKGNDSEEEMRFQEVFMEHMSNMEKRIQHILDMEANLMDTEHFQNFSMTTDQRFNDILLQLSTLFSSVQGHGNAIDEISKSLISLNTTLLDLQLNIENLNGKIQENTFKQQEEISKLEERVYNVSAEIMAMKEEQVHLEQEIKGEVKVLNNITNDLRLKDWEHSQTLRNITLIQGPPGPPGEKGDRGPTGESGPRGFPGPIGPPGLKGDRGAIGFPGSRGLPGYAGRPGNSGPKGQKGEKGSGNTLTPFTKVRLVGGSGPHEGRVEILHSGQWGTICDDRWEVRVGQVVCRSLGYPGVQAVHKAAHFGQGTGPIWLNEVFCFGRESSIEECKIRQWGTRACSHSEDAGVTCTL
Test: Biacore surface plasmon resonance binding kinetics
Conditions: His9-hMSR1 binding to captured antibody, 25° C.
Experimental: The MSR1 antibodies disclosed herein were conjugated to various liver X receptor (LXR) payloads. This example describes how equilibrium dissociation constant (KD) values for human MSR1 reagents binding to human anti-MSR1 antibody-drug conjugates and their corresponding unconjugated parental antibodies were determined using a real-time surface plasmon resonance-based Biacore T200 biosensor. […]
Attribute: ka
Hi! Could you send only the number? It should be in M⁻¹ s⁻¹, unit omitted.

Consider the worked cases shown below.
[
  {
    "molecule": "H1H27734P-N297Q (antibody, V domains shown) VH: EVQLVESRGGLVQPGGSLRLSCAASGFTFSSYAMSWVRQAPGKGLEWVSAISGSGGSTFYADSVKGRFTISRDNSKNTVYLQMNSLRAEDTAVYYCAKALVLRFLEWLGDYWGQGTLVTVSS VL: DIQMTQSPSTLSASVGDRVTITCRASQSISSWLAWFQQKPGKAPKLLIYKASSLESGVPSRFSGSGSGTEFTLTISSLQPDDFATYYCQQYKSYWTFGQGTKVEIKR",
    "reported_value": 77200
  },
  {
    "molecule": "H1H27754P-N297Q (antibody, V domains shown) VH: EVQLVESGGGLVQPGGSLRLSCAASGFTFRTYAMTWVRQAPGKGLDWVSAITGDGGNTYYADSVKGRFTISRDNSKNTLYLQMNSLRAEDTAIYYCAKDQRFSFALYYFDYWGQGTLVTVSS VL: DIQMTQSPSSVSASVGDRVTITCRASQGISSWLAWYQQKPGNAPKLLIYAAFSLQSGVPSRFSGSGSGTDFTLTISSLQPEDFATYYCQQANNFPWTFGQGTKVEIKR",
    "reported_value": 200000
  }
]

IN: // lookup ka for H1H21234N-N297Q (antibody, V domains shown) VH: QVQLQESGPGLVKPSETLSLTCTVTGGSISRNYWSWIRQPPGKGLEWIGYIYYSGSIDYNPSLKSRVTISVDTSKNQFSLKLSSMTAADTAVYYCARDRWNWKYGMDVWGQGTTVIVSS VL: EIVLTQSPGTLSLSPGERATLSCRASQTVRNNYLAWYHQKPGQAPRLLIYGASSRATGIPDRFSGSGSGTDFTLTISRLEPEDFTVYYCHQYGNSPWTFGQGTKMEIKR
OUT: 220000
